These data points were gathered from ChEMBL document CHEMBL1154383.

Molecular target: Peroxisome proliferator-activated receptor alpha (Homo sapiens, UniProt Q07869)
Sequence (Q07869 whole entry, the tested form may be a part): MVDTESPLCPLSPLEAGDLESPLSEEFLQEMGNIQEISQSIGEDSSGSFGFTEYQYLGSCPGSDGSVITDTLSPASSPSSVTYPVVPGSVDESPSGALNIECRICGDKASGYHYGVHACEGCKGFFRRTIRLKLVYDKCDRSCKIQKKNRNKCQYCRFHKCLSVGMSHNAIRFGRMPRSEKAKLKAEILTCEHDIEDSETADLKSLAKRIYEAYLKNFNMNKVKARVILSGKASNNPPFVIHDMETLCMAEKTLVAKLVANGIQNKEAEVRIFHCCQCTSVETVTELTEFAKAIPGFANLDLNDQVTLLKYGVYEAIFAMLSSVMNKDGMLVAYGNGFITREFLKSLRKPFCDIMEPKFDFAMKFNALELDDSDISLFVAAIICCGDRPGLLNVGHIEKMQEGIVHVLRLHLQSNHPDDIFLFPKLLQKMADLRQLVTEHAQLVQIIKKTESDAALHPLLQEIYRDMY
Test: Agonist activity at PPARalpha receptor expressed in HEK293 cells co-transfected with GAL4 by transactivation assay
Type: functional, cell-based
READOUT: pEC50
One number for each entry, as −log10 of the molar value.

[
  {
    "SUBSTANCE SMILES": "CCCCOc1ccc(-c2cc(C(=O)O)ccc2C)cc1CNC(=O)c1ccc(C(F)(F)F)cc1F",
    "READOUT": "pEC50",
    "READOUT NUMBER": 6.24
  },
  {
    "SUBSTANCE SMILES": "CCCCOc1ccc(-c2ccc(C)c(C(=O)O)c2)cc1CNC(=O)c1ccc(C(F)(F)F)cc1F",
    "READOUT": "pEC50",
    "READOUT NUMBER": 6.92
  },
  {
    "SUBSTANCE SMILES": "CCCCOc1ccc(-c2cccc(C(=O)O)c2C)cc1CNC(=O)c1ccc(C(F)(F)F)cc1F",
    "READOUT": "pEC50",
    "READOUT NUMBER": 6.89
  }
]

Give pEC50 for each of the items listed below.
1. CCCCOc1ccc(C[C@H](CC)C(=O)O)cc1CNC(=O)c1ccc(C(F)(F)F)cc1F
2. CCCCOc1ccc(-c2cccc(C(=O)O)c2)cc1CNC(=O)c1ccc(C(F)(F)F)cc1F
3. CCCCOc1ccc(-c2ccc(C(=O)O)c(C)c2)cc1CNC(=O)c1ccc(C(F)(F)F)cc1F

-- reply
6.62
6.10
5.52

* * *

For each of the compounds below, state its Efficacy.
Target: Peroxisome proliferator-activated receptor alpha (Homo sapiens)
Test: Agonist activity at PPARalpha receptor expressed in HEK293 cells co-transfected with GAL4 by transactivation assay relative to […]
Format: functional, cell-based
Answers are plain numbers, in %.

Sample records with Efficacy:
[
  {
    "SUBSTANCE SMILES": "CCCCOc1ccc(-c2ccc(C)c(C(=O)O)c2)cc1CNC(=O)c1ccc(C(F)(F)F)cc1F",
    "READOUT NUMBER": 100
  },
  {
    "SUBSTANCE SMILES": "CCCCOc1ccc(-c2cccc(C(=O)O)c2)cc1CNC(=O)c1ccc(C(F)(F)F)cc1F",
    "READOUT NUMBER": 100
  },
  {
    "SUBSTANCE SMILES": "CCCCOc1ccc(-c2cc(C(=O)O)ccc2C)cc1CNC(=O)c1ccc(C(F)(F)F)cc1F",
    "READOUT NUMBER": 100
  },
  {
    "SUBSTANCE SMILES": "CCCCOc1ccc(-c2cccc(C(=O)O)c2C)cc1CNC(=O)c1ccc(C(F)(F)F)cc1F",
    "READOUT NUMBER": 100
  }
]

Would you kindly look at the next entry?
Efficacy reading for `CCCCOc1ccc(-c2ccc(C(=O)O)c(C)c2)cc1CNC(=O)c1ccc(C(F)(F)F)cc1F` : 100

* * *

Molecular target: Peroxisome proliferator-activated receptor delta (Homo sapiens, UniProt Q03181)
Sequence (Q03181 whole entry): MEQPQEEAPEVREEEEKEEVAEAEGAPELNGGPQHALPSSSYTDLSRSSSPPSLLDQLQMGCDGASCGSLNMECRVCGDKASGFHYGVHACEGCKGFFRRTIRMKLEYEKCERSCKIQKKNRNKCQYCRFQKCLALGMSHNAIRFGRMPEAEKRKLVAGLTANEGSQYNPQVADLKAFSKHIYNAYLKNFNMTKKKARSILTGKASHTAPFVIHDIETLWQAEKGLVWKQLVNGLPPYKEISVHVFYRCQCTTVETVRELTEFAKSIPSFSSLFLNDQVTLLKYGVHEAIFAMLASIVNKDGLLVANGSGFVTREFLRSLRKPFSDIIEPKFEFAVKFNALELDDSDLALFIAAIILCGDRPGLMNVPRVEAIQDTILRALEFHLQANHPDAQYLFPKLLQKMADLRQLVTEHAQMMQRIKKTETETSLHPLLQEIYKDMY
Assay: Agonist activity at PPARdelta receptor expressed in HEK293 cells co-transfected with GAL4 by transactivation assay
pEC50: −log10 of the molar value.
Please note: met applies when pEC50 is 8 or greater, and not met applies otherwise.

Check out these entries, answers already filled in.
[
  {
    "SUBSTANCE SMILES": "CCCCOc1ccc(-c2cccc(C(=O)O)c2)cc1CNC(=O)c1ccc(C(F)(F)F)cc1F",
    "CLASS LABEL": "not met"
  },
  {
    "SUBSTANCE SMILES": "CCCCOc1ccc(-c2cccc(C(=O)O)c2C)cc1CNC(=O)c1ccc(C(F)(F)F)cc1F",
    "CLASS LABEL": "met"
  },
  {
    "SUBSTANCE SMILES": "CCCCOc1ccc(-c2ccc(C(=O)O)cc2F)cc1CNC(=O)c1ccc(C(F)(F)F)cc1F",
    "CLASS LABEL": "not met"
  },
  {
    "SUBSTANCE SMILES": "CCCCOc1ccc(-c2ccc(C(=O)O)c(C)c2)cc1CNC(=O)c1ccc(C(F)(F)F)cc1F",
    "CLASS LABEL": "not met"
  },
  {
    "SUBSTANCE SMILES": "CCCCOc1ccc(C[C@H](CC)C(=O)O)cc1CNC(=O)c1ccc(C(F)(F)F)cc1F",
    "CLASS LABEL": "met"
  }
]

-- ask Textbook exercise: given the entry `CCCCOc1ccc(-c2ccc(C(=O)O)cc2)cc1CNC(=O)c1ccc(C(F)(F)F)cc1F` , state whether its pEC50 is greater than or equal to 8.
-- reply not met

-- ask Textbook exercise: given the entry `CCCCOc1ccc(-c2ccc(C(=O)O)nc2)cc1CNC(=O)c1ccc(C(F)(F)F)cc1F` , state whether its pEC50 is greater than or equal to 8.
-- reply not met

-- ask Textbook exercise: given the entry `CCCCOc1ccc(-c2cc(C(=O)O)ccc2C)cc1CNC(=O)c1ccc(C(F)(F)F)cc1F` , state whether its pEC50 is greater than or equal to 8.
-- reply met
